Values compiled from ChEMBL document CHEMBL1130882.

Here's a batch of compounds along with measured pKi for UniProt P97266.
Sequence (P97266 whole entry): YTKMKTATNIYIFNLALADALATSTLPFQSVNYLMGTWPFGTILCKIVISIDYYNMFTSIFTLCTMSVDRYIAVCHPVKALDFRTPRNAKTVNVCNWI
Worth noting: pKi values are minus log10 of concentrations stated in mol/L.

Ask: What does the data say about its pKi? Entry: CC1CN(C)CCC12COc1c(O)cccc12 (racemic; form 2)
Result: 5.99

Ask: What does the data say about its pKi? Entry: CC1CN(C)CCC12COc1c(O)cccc12 (racemic; form 1)
Result: 7.27

Ask: What does the data say about its pKi? Entry: `CN1CCC2(CC1)COc1c(O)cccc12`
Result: 5.78

Ask: What does the data say about its pKi? Entry: CCC1Oc2c(O)cccc2C12CCN(C)CC2 (racemic)
Result: 6.99

Ask: What does the data say about its pKi? Entry: CC1Oc2c(O)cccc2C12CCN(C)CC2 (racemic)
Result: 6.91
